Tested on: HOP-18 NSCLC
Assay: NCI tumour cell line growth inhibition, 48 h

- compound: "O=C1CCC(c2ccc(Cl)cc2)=NN1c1nsc2ccccc12"
  TGI: "> 100 µM"
- compound: "CCOC(=O)CC1(C(=O)OCC)c2[nH]c3ccccc3c2CCN1Cc1ccccc1 (stereo unspecified)"
  TGI: "54.4 µM"
- compound: "N#CC(NC12CC3CC(CC(C3)C1)C2)c1ccccc1C(F)(F)F (stereo unspecified)"
  TGI: "> 100 µM"
- compound: "Cc1cn(C2CC(O)C(CO)O2)c(=O)n2nnnc12 (stereo unspecified)"
  TGI: "> 100 µM"
- compound: "COc1ccc(C(=O)C(C(=O)CCC(=O)Nc2cccc(Cl)c2)c2ccc(OC)cc2)cc1 (stereo unspecified)"
  TGI: "> 100 µM"
- compound: "COc1cc2c(cc1OC)C(CC(=O)NN=C(C)C)NCC2 (stereo unspecified)"
  TGI: "> 100 µM"
- compound: "CCOC(=O)C1=C(C)N(NC(=O)Nc2ccccc2)C(=O)C1=P(c1ccccc1)(c1ccccc1)c1ccccc1"
  TGI: "> 100 µM"
- compound: "CCOc1ccccc1NC(=O)CC(C(=O)OC)C(=O)C(=O)OC (stereo unspecified)"
  TGI: "> 100 µM"
- compound: "N#CC(NNC(=O)Cc1ccccc1)c1c(O)ccc2ccccc12 (stereo unspecified)"
  TGI: "35.4 µM"
- compound: "COc1cc(C=C2C(=O)NC(=O)NC2=O)cc(OC)c1OC"
  TGI: "> 100 µM"
- compound: "COc1cc(/C=C(\\C#N)C(N)=O)cc(Br)c1O"
  TGI: "> 100 µM"

----------
System: SK-OV-3 ovarian
Test: NCI tumour cell line growth inhibition, 48 h
Where a SMILES comes first, the peptide text is derived from it. [ ]: non-standard residue; d: D form. The star is where a group is joined. NMeF = CN[CH](Cc1ccccc1)C(=O)O; NMeV = CN[CH](C(=O)O)C(C)C; Boc = CC(C)(C)OC(=O)*

- compound: "NCCCCN(CCCN)/[N+]([O-])=N\\O"
  TGI: "> 100 µM"
- compound: "C[C@@H]1CC(=O)C2CCCC1C2=O (stereo not given in full)"
  TGI: "> 100 µM"
- compound: "CC(C)(C)c1ccc2c(c1)S(=O)(=O)Nc1ccccc1NS(=O)(=O)c1cc(C(C)(C)C)ccc1OCCOCCOCCO2"
  TGI: "> 100 µM"
- compound: "NN/C(=N\\S(=O)(=O)c1cc2ccccc2s1)Nc1ccc(Cl)cc1"
  TGI: "> 100 µM"
- compound: "COC(=O)[C@H](C)NC(=O)NC(=O)NC(=O)CI"
  TGI: "39.1 µM"
- compound: "Cc1nc(-c2cc3cc([N+](=O)[O-])ccc3oc2=O)cs1"
  TGI: "> 100 µM"
- compound: "O=C1/C(=N/O)Cc2c(Br)ccc(Br)c21"
  TGI: "> 100 µM"
- compound: "CCOc1cn(C2CC(O)C(CO)O2)c(=O)[nH]c1=O (stereo not given)"
  TGI: "> 100 µM"
- compound: "CCOC(=O)[C@@H](N)CCC(=O)N[C@@H](CSCc1ccccc1)C(=O)N[C@@H](C(=O)OCC)c1ccccc1"
  TGI: "31.5 µM"
- compound: "Cc1cc(C(=O)Nc2ncc(Cc3cccc(C(F)(F)F)c3)s2)c2ccccc2n1"
  TGI: "> 100 µM"
- compound: "CC(=O)OC(/C=C/c1ccccc1)=C(OC(C)C)/C1=C(\\c2ccccc2)SCCCSC1=O"
  TGI: "> 100 µM"
- compound: "O=C1OC(C(O)CO)C(=O)C1=O (stereo not given)"
  TGI: "7200 µM"
- compound: "COc1cc2c3c(n(CCCNC(=O)OCC4c5ccccc5-c5ccccc54)c(=O)c2cc1OC)-c1cc2c(cc1/C3=C\\CCNC(=O)OCC1c3ccccc3-c3ccccc31)OCO2"
  TGI: "> 50 µM"
- compound: "O=Cc1ccc2c(c1)CC1(Cc3ccccc3C1)C2"
  TGI: "> 100 µM"
- compound: "Cc1cc(Cl)ccc1N=C1NC(=O)C(CC(=O)Nc2ccc([N+](=O)[O-])cc2[N+](=O)[O-])S1 (stereo not given)"
  TGI: "55 µM"
- compound: "O=C1CC(=Nc2ccc(Cl)cc2)C(c2ccccc2)N1c1ccccc1 (stereo not given)"
  TGI: "51.6 µM"
- compound: "Cc1ccc(-c2c(C#N)c(-c3ccc(Cl)cc3)c(C#N)c(=O)n2NS(=O)(=O)c2ccc(C)cc2)cc1"
  TGI: "89.2 µM"
- compound: "COc1cc(/C=C2/C[C@H]3[C@@H]4CC=C5C[C@@H](O)CC[C@]5(C)[C@H]4CC[C@]3(C)NC2=O)cc(OC)c1OC"
  TGI: "> 92.3 µM"
- compound: "C=CC(CCc1ccc(C(=O)OCC)cc1)c1c(N)nc(N)[nH]c1=O (stereo not given)"
  TGI: "> 100 µM"
- compound: "CC(C)C(NC(=O)OC(C)(C)C)C(=O)N(C)C(Cc1ccccc1)C(=O)N(C)C(C(=O)O)C(C)C (stereo not drawn) (Boc-Val-[NMeF]-[NMeV]-OH; configuration not given here)"
  TGI: "> 100 µM"
